Source listed as PubChem BioAssay AID1347147.

TARGET OR SYSTEM: N-terminal Xaa-Pro-Lys N-methyltransferase 1 (Homo sapiens)
EXPERIMENTAL DETAILS: qHTS Assay for Inhibitors of N-terminal methyltransferase 1 (NTMT1): MTaseGlo Confirmatory Screen, Round 2
ASSAY SETUP: NTMT1 enzyme, MTase-Glo SAH luminescence; series mostly up to 57.4 µM
Inconclusive results are not listed. Calls of active or inactive are those of the source. Calls come from the whole dose curve; as a rule, active = well fitted inhibition curve with a large enough effect; inconclusive = small, poorly fitted or top-dose-only effect; inactive = no such curve, though single readings can be large or run the other way.
Select the correct class. Options are active, inactive and nothing else.

**Q:** Dear all, I need the recorded test outcome for CCC(=O)c1ccc2c(c1)N(CCCN(C)C)c1ccccc1S2 , thank you.
**A:** inactive

**Q:** Tell me the assay call for CC(C)COCC(CN(Cc1ccccc1)c1ccccc1)N1CCCC1 (stereo unspecified) please.
**A:** inactive

**Q:** Identify the outcome logged in this assay for the compound shown: CN(C)CCCN1c2ccccc2Sc2ccc(Cl)cc21
**A:** inactive

**Q:** Lab log entry: Cc1ccc(S(=O)(=O)/C=C/C#N)cc1 — outcome as called in the assay?
**A:** inactive

**Q:** Outcome? S=C(Nc1ccccc1)Nc1nccs1
**A:** inactive

**Q:** Please let me know the test result on file for CN(C)[C@@H]1C(=O)C(C(N)=O)=C(O)[C@@]2(O)C(=O)C3=C(O)c4c(O)ccc(Cl)c4[C@@H](O)[C@H]3C[C@@H]12 .
**A:** inactive

**Q:** Tell me the recorded outcome of this test for OCC1OC(n2cnc3c(NO)ncnc32)C(O)C1O (stereo unspecified) .
**A:** inactive

**Q:** Can you look up the reported call for Oc1ccccc1O for me?
**A:** inactive

**Q:** What classification did COc1ccc(/C=C2\COc3ccc(C)cc3C2=O)cc1O end up with in this test?
**A:** inactive

**Q:** Please let me know the test result on file for CSc1ccc2c(c1)N(CCC1CCCCN1C)c1ccccc1S2 (stereo unspecified) .
**A:** inactive

**Q:** So what was the verdict on C[C@H](NC(=O)/C(C#N)=C/c1ccc(O)c(O)c1)c1ccccc1 in this test?
**A:** inactive

**Q:** Kindly provide the recorded test outcome for the following compound: Cc1cc(C)c(/C=C2\C(=O)Nc3ccccc32)[nH]1
**A:** inactive

**Q:** For Nc1ccnc2c1ncn2[C@@H]1O[C@H](CO)[C@@H](O)[C@H]1O , what call appears in the results of this test?
**A:** active

**Q:** Hi team, can someone confirm the assay call for N[C@@H](Cc1c[nH]c2ccc(O)cc12)C(=O)O ?
**A:** inactive

**Q:** Give the logged outcome of this assay for the following compound: CC(C)(C)c1ccc(S(=O)(=O)/C=C\C#N)cc1
**A:** inactive

**Q:** Please let me know the test result on file for Cc1cc(C)c(CNC(=O)c2cc(-c3ccc(CN4CCOCC4)cc3)cc3c2cnn3C2CCCC2)c(=O)[nH]1 .
**A:** inactive

**Q:** Which outcome was assigned to NCCc1ccc(O)c(O)c1 in this test?
**A:** inactive

**Q:** Short answer needed: outcome of this test for N=c1c[n+](N2CCOCC2)[n-]o1 ?
**A:** inactive

**Q:** Which outcome did this test record for the compound O=C(N[C@@H](Cc1ccccc1)C(=O)CCl)OCc1ccccc1 ?
**A:** inactive

**Q:** # lookup: test call for COc1cc(/C=C(\C#N)C(=O)c2ccc(O)c(O)c2)cc(I)c1O
**A:** inactive

**Q:** How did this test come out for CSc1ccc(C(=O)c2[nH]c(=O)[nH]c2C)cc1 ?
**A:** inactive

**Q:** Could you please tell me the result logged for CCNC(=O)[C@H]1O[C@H](n2cnc3c(N)nc(NCCc4ccc(CCC(=O)O)cc4)nc32)[C@@H](O)[C@@H]1O in this assay?
**A:** inactive

**Q:** What did the test return for O=c1c(-c2ccc(O)cc2)coc2cc(O)cc(O)c12 ?
**A:** inactive

**Q:** Any idea what this test logged for CN(C)C(=O)/N=N/C(=O)N(C)C ?
**A:** inactive

**Q:** Please indicate how the test categorized CC(C)NCC(O)c1ccc(O)c(O)c1 (stereo unspecified) .
**A:** inactive

**Q:** Which outcome was entered for the compound C[C@](Cc1ccc(O)c(O)c1)(NN)C(=O)O in this test?
**A:** inactive

**Q:** Kindly provide the recorded test outcome for the following compound: OC[C@H]1O[C@@H](n2cnc3c(NCc4ccco4)ncnc32)[C@H](O)[C@@H]1O
**A:** inactive

**Q:** How did this test come out for Nc1c(S(=O)(=O)O)cc(Nc2ccc(Nc3nc(Cl)nc(Nc4ccc(S(=O)(=O)O)cc4)n3)c(S(=O)(=O)O)c2)c2c1C(=O)c1ccccc1C2=O ?
**A:** active

**Q:** Each compound tested received a call. Report the one for N#C/C(=C\c1ccc(O)c(O)c1)C(=O)Nc1ccccc1 .
**A:** inactive

**Q:** Please let me know the test result on file for Oc1ccc(C2CNCc3sccc32)cc1O (stereo unspecified) .
**A:** inactive

**Q:** Dear all, I need the recorded test outcome for C[C@H](Cc1ccc(O)c(O)c1)[C@@H](C)Cc1ccc(O)c(O)c1 , thank you.
**A:** active

**Q:** Record request — test call for Nc1nc2ccc(Cl)cc2c2nc(-c3ccco3)nn12
**A:** inactive

**Q:** Lab log entry: C=CCN1CCc2cc(O)c(O)cc2[C@H](c2ccccc2)C1 — outcome as called in the assay?
**A:** inactive

**Q:** What did the test return for N#C/C(=C\c1ccc(O)c(O)c1)C(=O)NCCc1ccccc1 ?
**A:** inactive

**Q:** Recorded test outcome, item N#C/C(=C\c1ccc(O)c(O)c1)C(=O)NCCCNC(=O)/C(C#N)=C/c1ccc(O)c(O)c1
**A:** active

**Q:** Record lookup: outcome of this test for CC(=O)/C=C1\C(=O)N(C)c2ccccc21 ?
**A:** inactive

**Q:** Look up the recorded call for Nc1nc(=S)c2ncn([C@@H]3O[C@H](CO)[C@@H](O)[C@H]3O)c2[nH]1 in this test.
**A:** inactive

**Q:** # fetch the recorded call for O=c1[nH]c(=S)[nH]c(-c2ccccc2)c1Cc1c(O)ccc2ccccc12 here
**A:** inactive

**Q:** Would you mind telling me which call this test gave CCCCNc1ccc(C(=O)OCCN(C)C)cc1 ?
**A:** inactive

**Q:** Hey, what did the test say about O=C1NC(=O)C(c2ccccc2[N+](=O)[O-])=C1Nc1ccc(O)c(Cl)c1 ?
**A:** inactive

**Q:** # fetch the recorded call for Oc1ccc2ccccc2c1SSc1c(O)ccc2ccccc12 here
**A:** inactive

**Q:** Hi, do you know how CC[C@H](C)n1cc(C)c2c(C(=O)NCc3c(C)cc(C)[nH]c3=O)cc(-c3ccc(N4CCNCC4)nc3)cc21 came out in this test?
**A:** inactive

**Q:** For this compound, state the assay outcome: O=C1Cc2c([nH]c3ccc(Br)cc23)-c2ccccc2N1
**A:** inactive

**Q:** Which outcome was assigned to CC(C)NC[C@@H](O)c1ccc(O)c(O)c1 in this test?
**A:** inactive

**Q:** Give the logged outcome of this assay for the following compound: CCn1nc(C(=O)O)c(=O)c2cc3c(cc21)OCO3
**A:** inactive

**Q:** Check the results log: what was the call for COc1cc2nc(N3CCCN(C)CC3)nc(NC3CCNCC3)c2cc1OC ?
**A:** inactive
